// values below are reported pSTAT3 MFI, B cells, 0.1 nM (unstimulated 1193.5)
System: T1, IL10Rα/IL2Rγ receptor (human, UniProt Q13651 22-578; P31785 23-369)
T1 sequence (looked up) 1: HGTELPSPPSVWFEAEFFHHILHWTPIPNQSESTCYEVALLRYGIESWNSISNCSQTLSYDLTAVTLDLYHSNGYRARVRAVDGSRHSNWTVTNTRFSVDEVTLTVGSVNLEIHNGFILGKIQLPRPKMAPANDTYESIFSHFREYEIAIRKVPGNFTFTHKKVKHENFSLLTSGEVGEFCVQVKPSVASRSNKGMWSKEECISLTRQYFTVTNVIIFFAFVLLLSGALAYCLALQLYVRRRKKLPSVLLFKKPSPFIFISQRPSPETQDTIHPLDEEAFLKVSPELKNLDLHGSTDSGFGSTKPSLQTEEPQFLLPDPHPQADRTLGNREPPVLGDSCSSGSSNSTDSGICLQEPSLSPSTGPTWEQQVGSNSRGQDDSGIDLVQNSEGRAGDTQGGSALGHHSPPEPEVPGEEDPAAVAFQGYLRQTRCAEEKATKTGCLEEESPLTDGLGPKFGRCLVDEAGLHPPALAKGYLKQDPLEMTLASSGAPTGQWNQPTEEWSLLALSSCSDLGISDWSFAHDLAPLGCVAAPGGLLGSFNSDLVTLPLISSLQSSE
T1 sequence (looked up) 2: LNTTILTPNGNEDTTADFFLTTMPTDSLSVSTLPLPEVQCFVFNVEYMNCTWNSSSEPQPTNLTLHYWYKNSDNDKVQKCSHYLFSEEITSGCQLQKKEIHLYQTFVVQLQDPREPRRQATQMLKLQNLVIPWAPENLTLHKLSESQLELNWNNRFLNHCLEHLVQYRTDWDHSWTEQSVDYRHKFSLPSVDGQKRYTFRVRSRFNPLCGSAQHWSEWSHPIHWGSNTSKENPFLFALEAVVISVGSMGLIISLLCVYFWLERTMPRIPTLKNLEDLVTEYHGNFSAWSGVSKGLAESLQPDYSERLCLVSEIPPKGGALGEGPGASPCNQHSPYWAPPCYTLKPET
Assay Notes: cell-based or functional assay
Endpoint Label: pSTAT3 MFI, B cells, 0.1 nM (unstimulated 1193.5) (MFI)

{"columns": ["Binder", "Unit Annotation", "Assay Result"],
 "data": [
  ["DR471(DR241-DR231) (bispecific antibody) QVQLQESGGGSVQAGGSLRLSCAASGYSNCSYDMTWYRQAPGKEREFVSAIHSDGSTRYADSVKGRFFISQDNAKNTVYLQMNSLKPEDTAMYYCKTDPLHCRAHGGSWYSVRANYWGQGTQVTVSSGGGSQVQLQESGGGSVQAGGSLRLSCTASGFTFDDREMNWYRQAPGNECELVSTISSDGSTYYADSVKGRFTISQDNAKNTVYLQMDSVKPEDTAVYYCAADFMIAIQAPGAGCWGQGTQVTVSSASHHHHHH", "MFI", 1110],
  ["DR441(DR236-DR231) (bispecific antibody) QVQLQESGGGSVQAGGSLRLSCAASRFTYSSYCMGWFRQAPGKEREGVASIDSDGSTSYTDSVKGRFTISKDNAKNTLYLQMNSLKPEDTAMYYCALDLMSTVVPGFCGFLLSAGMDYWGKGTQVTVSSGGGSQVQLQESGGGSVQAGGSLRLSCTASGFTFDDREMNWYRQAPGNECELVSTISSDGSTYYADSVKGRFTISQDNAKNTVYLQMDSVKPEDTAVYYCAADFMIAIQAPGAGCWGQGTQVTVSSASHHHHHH", "MFI", 1120],
  ["DR395(DR229-DR239) (bispecific antibody) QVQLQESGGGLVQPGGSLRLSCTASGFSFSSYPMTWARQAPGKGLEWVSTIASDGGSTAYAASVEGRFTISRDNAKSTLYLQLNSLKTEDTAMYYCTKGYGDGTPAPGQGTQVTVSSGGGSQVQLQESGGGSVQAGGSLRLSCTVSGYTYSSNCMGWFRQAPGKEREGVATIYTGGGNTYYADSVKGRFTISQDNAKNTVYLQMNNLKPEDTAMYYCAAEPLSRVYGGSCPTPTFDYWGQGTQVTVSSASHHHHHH", "MFI", 1150],
  ["DR465(DR240-DR231) (bispecific antibody) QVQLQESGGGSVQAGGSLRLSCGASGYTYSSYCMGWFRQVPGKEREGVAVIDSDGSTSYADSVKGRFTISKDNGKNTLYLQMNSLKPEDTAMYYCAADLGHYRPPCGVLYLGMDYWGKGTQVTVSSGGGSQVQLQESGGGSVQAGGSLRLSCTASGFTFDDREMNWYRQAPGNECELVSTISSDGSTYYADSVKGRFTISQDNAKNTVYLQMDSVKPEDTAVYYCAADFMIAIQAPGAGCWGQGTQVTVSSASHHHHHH", "MFI", 1110]
]}

Hello, the source for this data is patent US20250163162A1, in case you need it.
